test-method-notes: Rat pharmacokinetics, i.v. bolus
Type: in vivo, Sprague-Dawley rats
condition-description: rat, in vivo, iv, 5 mg/kg, female Sprague-Dawley rats, single 5 mg/kg slow i.v. bolus, plasma, LC-MS/MS, noncompartmental, n = 3 to 5/dose
Starred links: 1 amine or outer side, 2 acyl side, 3 side chain; linkers in the order of their positions; H or OH if unused. Positions of bridges follow the written chain, without caps; N, C: chain ends. Non-standard residues stand in square brackets, D forms with d. Residues, ends and D or L forms follow the SMILES beside them. *: point of attachment. Orn(4R-OH,5R-OCH2CH2NMe3+) = C[N+](C)(C)CCO[C@@H](N[*:3])[C@H](O)C[C@H](N[*:1])C(=O)[*:2]; pTerphenylCO(4''-OnC5H11) = CCCCCOc1ccc(-c2ccc(-c3ccc(C(=O)*)cc3)cc2)cc1; hTyr(3S-OH,4S-OH) = N[C@H](C(=O)O)[C@H](O)[C@@H](O)c1ccc(O)cc1; Pro(3S-OH,4S-Me) = C[C@H]1CN[C@H](C(=O)O)[C@H]1O; Hyp = O=C(O)[C@@H]1C[C@@H](O)CN1
assay-metric: Cmax (ng/mL)

• CCCCCOc1ccc(-c2ccc(-c3ccc(C(=O)N[C@H]4C[C@@H](O)[C@@H](OCC[N+](C)(C)C)NC(=O)[C@@H]5[C@@H](O)[C@@H](C)CN5C(=O)[C@H]([C@@H](C)O)NC(=O)[C@H]([C@H](O)[C@@H](O)c5ccc(O)cc5)NC(=O)[C@@H]5C[C@@H](O)CN5C(=O)[C@H]([C@@H](C)O)NC4=O)cc3)cc2)cc1 [CD101] ({pTerphenylCO(4''-OnC5H11)}-[Orn(4R-OH,5R-OCH2CH2NMe3+)]T[Hyp][hTyr(3S-OH,4S-OH)]T[Pro(3S-OH,4S-Me)]; lactam 1-C) = 10500

----------
test-method-notes: Dog pharmacokinetics, i.v. bolus
condition-description: in vivo, iv, male beagle dogs, single 1.4 mg/kg slow i.v. bolus, plasma, LC-MS/MS, noncompartmental, n = 4
Description: For each of the pharmacokinetic studies, whole-blood samples (K3EDTA as anticoagulant) were collected and centrifuged within 30 min of collection. The resulting plasma was harvested and stored at −20°C until analysis. […] When necessary, dilutions with blank matrix were made for samples that quantified above the upper limit of quantitation. […] Following analysis, quantitation was carried out by a calibration curve comprising the analyte/internal standard area ratio versus concentration. […]
Starred links: 1 amine or outer side, 2 acyl side, 3 side chain; linkers in the order of their positions; H or OH if unused. Positions of bridges follow the written chain, without caps; N, C: chain ends. Non-standard residues stand in square brackets, D forms with d. Residues, ends and D or L forms follow the SMILES beside them. *: point of attachment. Orn(4R-OH,5R-OCH2CH2NMe3+) = C[N+](C)(C)CCO[C@@H](N[*:3])[C@H](O)C[C@H](N[*:1])C(=O)[*:2]; pTerphenylCO(4''-OnC5H11) = CCCCCOc1ccc(-c2ccc(-c3ccc(C(=O)*)cc3)cc2)cc1; hTyr(3S-OH,4S-OH) = N[C@H](C(=O)O)[C@H](O)[C@@H](O)c1ccc(O)cc1; Pro(3S-OH,4S-Me) = C[C@H]1CN[C@H](C(=O)O)[C@H]1O; Hyp = O=C(O)[C@@H]1C[C@@H](O)CN1
assay-metric: Cmax (µg/mL)

- CCCCCOc1ccc(-c2ccc(-c3ccc(C(=O)N[C@H]4C[C@@H](O)[C@@H](OCC[N+](C)(C)C)NC(=O)[C@@H]5[C@@H](O)[C@@H](C)CN5C(=O)[C@H]([C@@H](C)O)NC(=O)[C@H]([C@H](O)[C@@H](O)c5ccc(O)cc5)NC(=O)[C@@H]5C[C@@H](O)CN5C(=O)[C@H]([C@@H](C)O)NC4=O)cc3)cc2)cc1 [CD101] ({pTerphenylCO(4''-OnC5H11)}-[Orn(4R-OH,5R-OCH2CH2NMe3+)]T[Hyp][hTyr(3S-OH,4S-OH)]T[Pro(3S-OH,4S-Me)]; lactam 1-C): 1.57
